tested.target: DAPK3 (human)
assay.comment: radiometric filter-binding kinase assay, Kinase HotSpot
condition.summary: compound 0.5 µM; ATP 10 µM
Kindly state residual activity for each of the entries shown.
Quick note: number first, unit second.

Prompt: Give residual activity; test system DAPK3 (human); molecule "Nc1ccc2ncnc(NCCc3ccc(Oc4ccccc4)cc3)c2c1"
Completion: 104%

Prompt: State measured residual activity of the molecule "Cc1ccc(S(=O)(=O)/C=C/C#N)cc1" with DAPK3 (human).
Completion: 97.4%

Prompt: Give measured residual activity for "CC(=O)c1ccc(N2CCOCC2)cc1O" (DAPK3 (human)).
Completion: 98.1%

Prompt: Name the recorded residual activity of CO[C@H]1CC2CC[C@@H](C)[C@@](O)(O2)C(=O)C(=O)N2CCCC[C@H]2C(=O)OC([C@H](C)C[C@@H]2CC[C@@H](O)[C@H](OC)C2)CC(=O)[C@H](C)/C=C(\C)[C@@H](O)[C@@H](OC)C(=O)[C@H](C)C[C@H](C)/C=C/C=C/C=C/1C (some centres undefined) , assay system DAPK3 (human).
Completion: 104%

Hello, the source for this data is the kinase profiling compilation of Christmann-Franck et al. (2016), in case you need it.
